Quick list: Activity per entry.
Method description: Cytoprotective activity in HMEC1 assessed as inhibition of oxidized LDL induced toxicity measured as residual viability at 10 uM after 24 hrs by MTT assay (reference value: 20 +/- 5 %)
Format: functional, Homo sapiens, HMEC-1
The reply should be a number in %, with the unit left off.

| Compound | Measurement units | Activity |
| --- | --- | --- |
| COc1cc(/C=N/Nc2nc3ccccc3s2)cc(Oc2cc(/C=N/Nc3nc4ccccc4s3)cc(OC)c2O)c1O | % | 69 |
| COc1cc(/C=N/N=c2/[nH]ncc3ccccc23)cc(Oc2cc(/C=N/N=c3/[nH]ncc4ccccc34)cc(OC)c2O)c1O.Cl.Cl | % | 72 |
| COc1cc(/C=N/NC(=O)OCc2ccccc2)cc(Oc2cc(/C=N/NC(=O)OCc3ccccc3)cc(OC)c2O)c1O | % | 69 |

Would you kindly look at the next entry?
q: Look up Activity for this compound: Cc1c(C)c2c(c(C)c1O)CCC(C)(C(=O)O)O2 (centres undefined) [TROLOX]
a: 68

---

Method description: Cytotoxicity against HMEC1 assessed as cell viability at 10 uM after 24 hrs by MTT assay in absence of oxidized LDL
Parameters: species or system HMEC-1
Experimental conditions: human, HMEC1 cells; read-out: Activity
Quantity kind: viability at 24 h, 10 µM (%)
Write down the numeric answer in % and omit the unit.

| Smiles data | Measurement units | Reported measurement |
| --- | --- | --- |
| COc1cc(/C=N/N=c2/[nH]ncc3ccccc23)cc(Oc2cc(/C=N/N=c3/[nH]ncc4ccccc34)cc(OC)c2O)c1O.Cl.Cl | % | 90 |
| COc1cc(/C=N/NC(=O)c2ccncc2)cc(Oc2cc(/C=N/NC(=O)c3ccncc3)cc(OC)c2O)c1O | % | 92 |
| COc1cc(/C=N/NC(=O)c2ccncc2)cc(-c2cc(/C=N/NC(=O)c3ccncc3)cc(OC)c2O)c1O | % | 88 |
| COc1cc(/C=N/NC(=O)c2cc(C)n[nH]2)cc(Oc2cc(/C=N/NC(=O)c3cc(C)n[nH]3)cc(OC)c2O)c1O | % | 100 |
| COc1cc(/C=N/NC(=O)OCc2ccccc2)cc(Oc2cc(/C=N/NC(=O)OCc3ccccc3)cc(OC)c2O)c1O | % | 94 |

Now let's try a different one.
q: # query: viability at 24 h, 10 µM of entry "COc1cc(C=O)cc(-c2cc(C=O)cc(OC)c2O)c1O"
a: 99

Origin of measurements: ChEMBL document CHEMBL3813648
